biological target: MAGI2_6, Q86UL8; test: holdup assay; set-up: key: below the threshold = too weak to quantify, mostly under pKd 3.1 to 4; details: plain residues with an end cap or a label only (N-terminal biotin on a linker: ttds)
Sequence (Q86UL8 1141-1229): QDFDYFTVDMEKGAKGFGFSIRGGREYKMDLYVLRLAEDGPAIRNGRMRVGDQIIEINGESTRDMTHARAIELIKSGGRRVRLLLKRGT
MEASURED_PROPERTY: pKd

Below, each entry is followed by its recorded pKd result.
1) NDPAWDETNL [ARHGEF7, Q14155;Q14155-1] : 3.92
2) EMDRRPATVV [PLCB4, Q15147] : below the threshold
3) RPLPRKVSQL [DOCK4, Q8N1I0] : below the threshold
4) SGSRPSATVV [HPV73-E6, Q82005] : below the threshold
5) RLQRRRETQV [HPV18-E6, P06463] : below the threshold
6) PVRVCEETSL [OTULIN, Q96BN8] : 4.06
7) RLPKIKETTV [FRMPD4, Q14CM0] : 3.98
8) FHPLGADSQV [SLC2A1, P11166] : 3.99

Next binder, pKd to be filled in.
Qu. Entry PRVKPQRSKV [PPP1R13L, Q8WUF5] : reported pKd = ?
Ans. below the threshold
